test: Mouse PK of G7883, PO in MCT vehicle; format: in vivo, female CD-1 mice; conditions: female, CD-1, plasma, 250 mg/kg, PO 250 mpk, mean ± SD
ENDPOINT: Tmax (min)
Give bare numbers, in min.

For the compound shown here, Cc1nccnc1-c1nn2c(=O)cc(-c3ccc(C4CCCCC4)cc3)[nH]c2c1C(=O)N1CC(CF)C1 , give the reported Tmax. 35

----------
assay: Mouse PK of G7883, IP in MCT vehicle; type: in vivo, female NSG mice; conditions: female, NSG, plasma, 150 mg/kg, IP 150 mpk, MCT vehicle, mean
ENDPOINT: AUC(0-t) (µM·h)
One number for each entry, in µM·h.

For the compound shown here, Cc1nccnc1-c1nn2c(=O)cc(-c3ccc(C4CCCCC4)cc3)[nH]c2c1C(=O)N1CC(CF)C1 , give the reported AUC(0-t). 217

meta.source: paper PMC10892288
